Each entry below carries its recorded melting point.

Value of measured melting point for the entry Cc1ccc2c(c1)oc1c(C(=O)NN3CCCC3)nn(-c3ccc(Cl)cc3Cl)c12 [Example 3.21] : 90 to 92 °C

Value of measured melting point for the entry Cc1ccc2c(c1)oc1c(C(=O)NC3C4(C)CCC(C4)C3(C)C)nn(-c3ccc(Cl)cc3Cl)c12 (stereo not drawn) [Example 3.26] : 84 to 86 °C

Value of measured melting point for the entry Cc1ccc2c(c1)oc1c(C(=O)NN3CCOCC3)nn(-c3ccc(Cl)cc3Cl)c12 [Example 3.22] : 178 to 180 °C

Value of measured melting point for the entry Cc1ccc2c(c1)oc1c(C(=O)N[C@@H]3C[C@H]4C[C@@H]([C@@H]3C)C4(C)C)nn(-c3ccc(Cl)cc3Cl)c12 [Example 3.25] : 85 to 87 °C

Value of measured melting point for the entry Cc1ccc2c(c1)oc1c(C(=O)NC34CC5CC(CC(C5)C3)C4)nn(-c3ccc(Cl)cc3Cl)c12 [Example 3.28] : 210 to 212 °C

// moving on: another record for melting point
Value of measured melting point for the entry Cc1ccc2c(c1)oc1c(C(=O)NC3C4CC5CC(C4)CC3C5)nn(-c3ccc(Cl)cc3Cl)c12 (stereo not drawn) [Example 3.29] : 209 to 211 °C

###

# measuredTarget: CB2 cannabinoidergic receptors (Mus musculus)
# Sequence (P47936 whole entry): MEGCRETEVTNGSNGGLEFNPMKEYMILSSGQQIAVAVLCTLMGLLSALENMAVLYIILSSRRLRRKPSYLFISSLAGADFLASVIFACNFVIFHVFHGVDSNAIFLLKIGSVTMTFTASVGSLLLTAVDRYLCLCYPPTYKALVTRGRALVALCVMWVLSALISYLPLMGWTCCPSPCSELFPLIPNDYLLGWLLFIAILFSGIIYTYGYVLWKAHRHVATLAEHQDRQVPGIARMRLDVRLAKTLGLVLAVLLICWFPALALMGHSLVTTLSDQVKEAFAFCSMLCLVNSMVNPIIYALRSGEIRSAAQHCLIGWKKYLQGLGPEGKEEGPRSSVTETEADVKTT
readoutKind: Ki

Value of measured Ki for the entry "Cc1ccc2c(c1)oc1c(C(N)=O)nn(-c3ccc(Cl)cc3Cl)c12" : > 3 µM

###

# measuredTarget: UniProtKB P47746
# Sequence (P47746 whole entry): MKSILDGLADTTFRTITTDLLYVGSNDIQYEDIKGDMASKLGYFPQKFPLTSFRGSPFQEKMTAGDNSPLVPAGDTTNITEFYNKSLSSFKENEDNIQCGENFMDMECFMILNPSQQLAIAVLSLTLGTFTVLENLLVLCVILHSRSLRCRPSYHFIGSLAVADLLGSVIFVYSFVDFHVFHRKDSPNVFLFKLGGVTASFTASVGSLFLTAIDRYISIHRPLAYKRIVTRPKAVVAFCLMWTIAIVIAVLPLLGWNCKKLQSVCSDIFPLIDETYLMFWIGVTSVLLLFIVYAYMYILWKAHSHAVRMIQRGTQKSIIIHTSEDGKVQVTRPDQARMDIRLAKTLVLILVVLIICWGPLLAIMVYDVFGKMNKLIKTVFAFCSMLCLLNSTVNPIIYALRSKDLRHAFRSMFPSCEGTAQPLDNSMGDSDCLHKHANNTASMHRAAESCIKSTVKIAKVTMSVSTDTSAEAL
readoutKind: Ki

Value of measured Ki for the entry "Cc1ccc2c(c1)oc1c(C(N)=O)nn(-c3ccc(Cl)cc3Cl)c12" : > 3 µM

###

readoutKind: melting point

Worked set:
Value of measured melting point for the entry "Cc1ccc2c(c1)oc1c(C(=O)NC3CCCCC3)nn(-c3ccc(Cl)cc3Cl)c12" : 140 to 142 °C

Value of measured melting point for the entry "Cc1ccc2c(c1)oc1c(C(=O)N[C@H]3C[C@@H](C)CC[C@@H]3C(C)C)nn(-c3ccc(Cl)cc3Cl)c12" : 70 to 72 °C

Value of measured melting point for the entry Cc1ccc2c(c1)oc1c(C(=O)NC3CC4CCC3(C)C4(C)C)nn(-c3ccc(Cl)cc3Cl)c12 (stereo not shown) : 78 to 80 °C

Further cases:
Value of measured melting point for the entry "Cc1ccc2c(c1)oc1c(C(N)=O)nn(-c3ccc(Cl)cc3Cl)c12" : 185 to 186 °C

# credit: patent US20100216785A1
